Recorded koff values for a group of binders are listed next.
biological target: Norovirus surrogate virus-like particle, type GII.4 Minerva strain (human Norovirus GII.4 Minerva strain); experiment: SPR, unpurified peptide against nVLP GII.4
Report as: number unit

Query: What value of koff has been reported for the following binder? AWARSNNSRSKAFNLGWGSC [Mut Peptide-81]
Result: 0.00455 s⁻¹

Query: What value of koff has been reported for the following binder? RWVRVKLRSHTKLNRYIGSC [Mut Peptide-94]
Result: 0.00294 s⁻¹

---
Query: What value of koff has been reported for the following binder? DWARKNNKRKMNFNLGWGSC [Mut Peptide-60]
Result: 0.00487 s⁻¹

Query: What value of koff has been reported for the following binder? SWARSNNKRSKAFNLGWGSC [Mut Peptide-78]
Result: 0.00431 s⁻¹

Query: What value of koff has been reported for the following binder? VWARKNNKRKKDFNAGWGSC [Mut Peptide-53]
Result: 0.00408 s⁻¹

Query: What value of koff has been reported for the following binder? RWHRVKLRSHTELNRYIGSC [Mut Peptide-92]
Result: 0.00355 s⁻¹

Query: What value of koff has been reported for the following binder? RWVRVKLRSHTELNRYIGSC [Mut Peptide-93]
Result: 0.00332 s⁻¹
